pIC50: −log10 of the molar value.
Let's look at some pIC50 data for Methionine aminopeptidase 2 (Homo sapiens, UniProt P50579) that I collected from the literature.
Sequence (P50579 whole entry, species assumed): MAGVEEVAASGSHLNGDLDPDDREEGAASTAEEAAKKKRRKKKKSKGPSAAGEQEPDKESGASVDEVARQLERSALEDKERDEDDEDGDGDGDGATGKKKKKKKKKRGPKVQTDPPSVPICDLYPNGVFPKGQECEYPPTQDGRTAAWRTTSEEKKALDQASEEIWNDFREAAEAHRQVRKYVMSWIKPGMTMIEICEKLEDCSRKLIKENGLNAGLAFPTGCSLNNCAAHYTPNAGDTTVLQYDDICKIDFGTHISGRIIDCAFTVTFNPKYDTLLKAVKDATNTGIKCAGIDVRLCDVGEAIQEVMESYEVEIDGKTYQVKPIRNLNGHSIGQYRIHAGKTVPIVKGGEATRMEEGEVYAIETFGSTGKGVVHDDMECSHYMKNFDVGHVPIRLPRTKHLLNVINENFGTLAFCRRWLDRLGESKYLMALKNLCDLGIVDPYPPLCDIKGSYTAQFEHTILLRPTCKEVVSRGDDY

Would you please look over these solved cases?
> print(dat)
                                   compound  attribute.measured  assay.result
1  O=C(NCc1cc(F)cc(Cl)c1)C1(O)CCN(C[C@H]2CC[C@H](C(=O)O)CC2)C1=O (some centres unmarked)               pIC50  5.00 to 6.00
2  N#Cc1ccc(N2CC[C@](O)(C(=O)NCc3cc(F)cc(Cl)c3)C2=O)cn1               pIC50  6.00 to 8.00
3  CN(C)CCNc1ncc(OC[C@H]2CCCN2c2ncnc3[nH]cnc23)c2ccccc12               pIC50  6.00 to 8.00
4  CN(Cc1ccsc1)C(=O)[C@@]1(O)CCN(c2ccccc2)C1=O               pIC50        < 5.00

Next up:
Recorded pIC50 (compound `O=C(NCCc1cccs1)[C@]1(O)CCN(c2ccc3ccccc3c2)C1=O` ): 6.00 to 8.00
